assay_notes: nonspecific calcium rise without TRPC4 – cell-based, HEK293 mu-opioid receptor line, counter-screen for TRPC4 activator project, confirmation (AID 449723);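 also: counter screen cells carry the mu-opioid receptor alone and lack TRPC4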
settings: HEK293 mu-opioid cells, Fluo-4 calcium fluorescence, at 10 µM
Activity calls are given as the source filed them.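 The calls were made as follows: active = hit in primary screen, with calcium signal over 5 SD above buffer well mean in both duplicates; inactive = the rest.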
reported_property: activation

| compound | activation |
| --- | --- |
| COc1ccc(C(CNc2ccc(C(F)(F)F)cn2)N(C)C)cc1OC (stereo not drawn) | inactive |
| Clc1cccc(COn2c(-c3ccc(Cl)cc3Cl)nc3ncccc32)c1 | inactive |
| Cc1cc(C)c2c(=O)n(CC(=O)NCCCN3CCN(c4ccccc4F)CC3)sc2n1 | inactive |
| CCOC(=O)C1=C(C)N(C)C(=S)NC1c1cccc(Cl)c1Cl (stereo not drawn) | inactive |
| COc1ccccc1OCC(=O)Nc1ccc(Cl)cc1 | inactive |
| O=C(NCCc1ccccn1)c1ccc(COc2ccccc2)o1 | inactive |
| Cc1c(CN2CCC(n3nccc3NC(=O)CCc3ccccc3)CC2)cnn1C | inactive |
| Cc1ccc(C)n1-c1nnc(N2CCC(C(=O)NCCCN3CC(C)CC(C)C3)CC2)s1 (stereo not drawn) | inactive |
| Clc1ccc(CN2C3=NCCN3c3ccccc32)cc1 | inactive |
| NC1=NC2(CCN(Cc3ccccc3)CC2)n2c(nc3ccccc32)N1 | inactive |

Asked: // Input: Cc1c(C(=O)NCCc2ccccc2)oc2ccccc12 . Output its activation only.
Given back: inactive

Asked: // Input: CCOc1cc(/C=C2\C(=N)N3N=CSC3=NC2=O)ccc1OS(=O)(=O)c1ccccc1 . Output its activation only.
Given back: inactive

Asked: // Input: NC(=O)c1nsc(C(=O)N(Cc2ccco2)C(C(=O)NCc2ccccc2)c2ccc(O)cc2)c1N (stereo not drawn) . Output its activation only.
Given back: inactive

Asked: // Input: CN1CCN(Cc2cccc(Oc3ccc(Cl)cc3)c2)CC1 . Output its activation only.
Given back: inactive
